biological target: MAP kinase-activated protein kinase 2 (Homo sapiens) (UniProt P49137); conditions: at 1 µM;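 also: values are mean inhibition from the GSK PKIS screen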
Sequence (P49137 whole entry, looked up): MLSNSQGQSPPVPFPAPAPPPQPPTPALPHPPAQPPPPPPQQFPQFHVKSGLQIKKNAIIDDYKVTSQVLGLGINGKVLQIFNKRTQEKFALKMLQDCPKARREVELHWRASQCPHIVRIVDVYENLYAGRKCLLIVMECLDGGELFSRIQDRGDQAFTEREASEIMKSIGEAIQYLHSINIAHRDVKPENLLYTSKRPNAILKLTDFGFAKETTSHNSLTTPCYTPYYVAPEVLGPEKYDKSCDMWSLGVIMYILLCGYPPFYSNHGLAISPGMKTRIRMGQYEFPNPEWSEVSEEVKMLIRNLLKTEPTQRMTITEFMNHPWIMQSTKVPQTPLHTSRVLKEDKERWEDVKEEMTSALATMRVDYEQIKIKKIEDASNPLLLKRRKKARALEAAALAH
readoutName: inhibition (%)
Express it in %; write the number only.

Given the entry CC1=C(C(=O)Nc2ccc3[nH]nc(C)c3c2)C(c2ccc(C(F)(F)F)cc2)CC(=O)N1 (stereo unspecified) , report its measured inhibition. 0.92

// next record CC1=C(C(=O)Nc2ccc3[nH]ncc3c2)C(c2ccc(F)cc2)N=C(c2ccc(C(F)(F)F)nc2)N1 (stereo unspecified) 0.33

// next record Cc1ccc(-c2cc3c(NC(=O)C4CC4)ncnc3o2)cc1 1.3

Next:
Given the entry Cc1cc(O)cc(C)c1/C=C/c1cncc(C(=O)OC(C)(C)C)c1 , report its measured inhibition. 1

// next record Cn1c(-c2nonc2N)nc2cnccc21 1.06

// next record Cc1cc(O)cc(C)c1/C=C/c1cncc(C(N)=O)c1 0.98

// next record Fc1ccc(Nc2nccc(-c3c(-c4ccc(C(F)(F)F)cc4)nn4ncccc34)n2)cc1F 0.53

// next record COc1ccc(-c2nn3ncccc3c2-c2ccnc(Nc3ccc(F)c(F)c3)n2)cc1 2.82

// next record Cc1c2ccc(N(C)c3ccnc(Nc4cccc(S(N)(=O)=O)c4)n3)cc2nn1C 1.4

// next record NS(=O)(=O)c1cccc(N/C=C2\C(=O)Nc3ccccc32)c1 4.45

// next record O=C1Nc2ccccc2/C1=C1\CCc2cc(O)ccc21 -0.15

---

Each record here notes measured inhibition.
Molecular target: Interleukin-1 receptor-associated kinase 4 (Homo sapiens);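 also: reported figure is the mean inhibition of IRAK4 activity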
Sequence (whole entry): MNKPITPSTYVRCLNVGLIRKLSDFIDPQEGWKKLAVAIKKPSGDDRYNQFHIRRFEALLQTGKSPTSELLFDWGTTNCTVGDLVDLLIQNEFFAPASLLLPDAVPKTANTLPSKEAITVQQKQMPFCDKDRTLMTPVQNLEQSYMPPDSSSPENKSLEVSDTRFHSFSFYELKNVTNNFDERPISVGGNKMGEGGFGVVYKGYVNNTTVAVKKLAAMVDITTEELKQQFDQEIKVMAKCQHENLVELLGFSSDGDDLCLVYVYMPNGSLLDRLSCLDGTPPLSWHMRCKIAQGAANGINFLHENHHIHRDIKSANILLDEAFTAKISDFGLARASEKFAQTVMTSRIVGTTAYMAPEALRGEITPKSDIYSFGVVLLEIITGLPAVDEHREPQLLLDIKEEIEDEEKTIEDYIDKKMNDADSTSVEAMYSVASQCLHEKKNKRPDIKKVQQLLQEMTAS
Conditions: at 0.1 µM
Express it in %; write the number only.

Given the entry CC1(C)CC(n2cnc(-c3ccc(F)cc3)c2-c2ccnc(N)n2)CC(C)(C)N1 , report its measured inhibition. 4.73

We now examine a further molecule.
Given the entry N#Cc1ccc2c(-c3ccnc(NC4CC4)n3)c(-c3ccc(F)cc3)nn2c1 , report its measured inhibition. 0.03

---

Each record here notes measured inhibition.
Target: Sphingosine kinase 2 (Homo sapiens) (UniProt Q9NRA0)
Sequence (whole entry): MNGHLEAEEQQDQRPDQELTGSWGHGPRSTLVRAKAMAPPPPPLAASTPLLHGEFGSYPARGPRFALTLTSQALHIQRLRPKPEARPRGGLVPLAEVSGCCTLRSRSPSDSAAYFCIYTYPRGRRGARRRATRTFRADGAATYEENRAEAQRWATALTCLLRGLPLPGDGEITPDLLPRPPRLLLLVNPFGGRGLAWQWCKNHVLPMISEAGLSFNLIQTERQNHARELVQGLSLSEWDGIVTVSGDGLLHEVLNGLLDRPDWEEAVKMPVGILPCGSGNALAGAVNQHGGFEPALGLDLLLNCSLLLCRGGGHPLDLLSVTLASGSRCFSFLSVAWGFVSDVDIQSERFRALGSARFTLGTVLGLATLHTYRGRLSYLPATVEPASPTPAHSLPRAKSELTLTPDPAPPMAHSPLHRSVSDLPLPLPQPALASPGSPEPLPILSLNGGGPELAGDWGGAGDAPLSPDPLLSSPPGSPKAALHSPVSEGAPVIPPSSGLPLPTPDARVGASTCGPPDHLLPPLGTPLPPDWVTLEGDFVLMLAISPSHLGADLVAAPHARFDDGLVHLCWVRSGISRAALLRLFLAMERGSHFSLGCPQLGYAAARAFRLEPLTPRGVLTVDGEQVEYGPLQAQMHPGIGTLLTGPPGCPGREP
Conditions: at 1 µM
Description: GSK_PKIS: SPHK2 mean inhibition at 1 uM [Nanosyn]
Returns: string containing the numeric result and its unit.

Check out these entries, answers already filled in.
Given the entry COc1ccccc1-c1cc(/C=C2\C(=O)Nc3ncc(Br)cc32)cc(Br)c1O , report its measured inhibition. 0.1%

// next record CCn1c(-c2nonc2N)nc2cncc(C(=O)NCCNC)c21 8.93%

// next record COc1c(C(N)=O)cc(-c2ccc(Cl)cc2)cc1-c1ccc(S(N)(=O)=O)cc1 0.28%

// next record COc1ccc2ncn(-c3cc(O[C@H](C)c4ccccc4C(F)(F)F)c(C(N)=O)s3)c2c1 -2.97%

// next record COc1ccc(Nc2ncc(-c3ccccc3)o2)cc1OC -0.4%

// next record Fc1cccc(COc2ccc(Nc3ncncc3C#Cc3ccccc3)cc2Cl)c1 0.98%

// next record N#Cc1cccc(Nc2ncc(-c3ccccc3)o2)c1 -1.96%

// next record COc1ccc(-c2nn3ncccc3c2-c2ccnc(Nc3ccc(F)c(F)c3)n2)cc1 0%

Next:
Given the entry O=C(O[C@H]1CN[C@H](C#Cc2cc3ncnc(Nc4ccc(OCc5cccc(F)c5)c(Cl)c4)c3s2)C1)N1CCOCC1 , report its measured inhibition. -2.18%

// next record CN(C)CCNC(=O)Nc1ccc(N(C)c2ccnc(Nc3ccc(CS(C)(=O)=O)cc3)n2)cc1 2.33%

// next record OCCCNc1nccc(-c2c(-c3ccc(F)cc3)nn3cc(C(F)(F)F)ccc23)n1 -1.3%

// next record CC1=C(C(=O)Nc2ccc3[nH]nc(C)c3c2)C(c2ccc(C(F)(F)F)cc2)CC(=O)N1 (configuration not stated) -2.04%
